biological target: Human PI3K beta (Homo sapiens); construct: His (N); host or cells: SF9 insect cells (baculovirus); experiment: Human PI3K beta enzyme assay (HTRF); type: biochemical; conditions: concentration not given; b1387 states 1.1 μM for PI3K α and β; read-out: p110 beta Percent Inhibition
Sequence (P42338 whole entry): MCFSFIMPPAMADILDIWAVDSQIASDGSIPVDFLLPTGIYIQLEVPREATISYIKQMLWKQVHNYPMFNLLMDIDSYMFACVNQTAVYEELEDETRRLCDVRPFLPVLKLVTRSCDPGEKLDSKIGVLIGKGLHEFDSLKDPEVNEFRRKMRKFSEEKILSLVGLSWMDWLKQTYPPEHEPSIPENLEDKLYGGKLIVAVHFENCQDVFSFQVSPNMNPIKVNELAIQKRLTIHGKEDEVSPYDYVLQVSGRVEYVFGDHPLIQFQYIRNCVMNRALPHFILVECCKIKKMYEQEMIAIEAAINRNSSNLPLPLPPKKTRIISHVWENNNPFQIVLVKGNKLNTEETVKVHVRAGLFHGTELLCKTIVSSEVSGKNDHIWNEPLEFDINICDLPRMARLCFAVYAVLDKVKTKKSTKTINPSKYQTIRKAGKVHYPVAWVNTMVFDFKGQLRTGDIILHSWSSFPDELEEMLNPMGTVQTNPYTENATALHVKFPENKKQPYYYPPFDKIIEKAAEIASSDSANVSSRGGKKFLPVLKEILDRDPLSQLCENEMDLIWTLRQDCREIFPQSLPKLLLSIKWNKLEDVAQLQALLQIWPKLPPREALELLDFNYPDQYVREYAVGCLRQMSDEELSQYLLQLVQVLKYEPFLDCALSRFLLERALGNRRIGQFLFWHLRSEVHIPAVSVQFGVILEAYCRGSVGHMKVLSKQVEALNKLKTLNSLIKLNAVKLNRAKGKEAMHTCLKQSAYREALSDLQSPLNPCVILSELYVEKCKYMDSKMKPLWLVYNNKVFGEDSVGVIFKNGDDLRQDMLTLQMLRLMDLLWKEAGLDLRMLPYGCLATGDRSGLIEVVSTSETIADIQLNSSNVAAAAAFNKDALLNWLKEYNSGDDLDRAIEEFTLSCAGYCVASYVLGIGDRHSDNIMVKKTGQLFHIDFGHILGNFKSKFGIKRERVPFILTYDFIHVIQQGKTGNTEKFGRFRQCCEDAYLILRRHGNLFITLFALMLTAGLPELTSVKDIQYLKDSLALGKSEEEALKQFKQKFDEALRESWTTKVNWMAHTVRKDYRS
Sequence (P27986 whole entry partner): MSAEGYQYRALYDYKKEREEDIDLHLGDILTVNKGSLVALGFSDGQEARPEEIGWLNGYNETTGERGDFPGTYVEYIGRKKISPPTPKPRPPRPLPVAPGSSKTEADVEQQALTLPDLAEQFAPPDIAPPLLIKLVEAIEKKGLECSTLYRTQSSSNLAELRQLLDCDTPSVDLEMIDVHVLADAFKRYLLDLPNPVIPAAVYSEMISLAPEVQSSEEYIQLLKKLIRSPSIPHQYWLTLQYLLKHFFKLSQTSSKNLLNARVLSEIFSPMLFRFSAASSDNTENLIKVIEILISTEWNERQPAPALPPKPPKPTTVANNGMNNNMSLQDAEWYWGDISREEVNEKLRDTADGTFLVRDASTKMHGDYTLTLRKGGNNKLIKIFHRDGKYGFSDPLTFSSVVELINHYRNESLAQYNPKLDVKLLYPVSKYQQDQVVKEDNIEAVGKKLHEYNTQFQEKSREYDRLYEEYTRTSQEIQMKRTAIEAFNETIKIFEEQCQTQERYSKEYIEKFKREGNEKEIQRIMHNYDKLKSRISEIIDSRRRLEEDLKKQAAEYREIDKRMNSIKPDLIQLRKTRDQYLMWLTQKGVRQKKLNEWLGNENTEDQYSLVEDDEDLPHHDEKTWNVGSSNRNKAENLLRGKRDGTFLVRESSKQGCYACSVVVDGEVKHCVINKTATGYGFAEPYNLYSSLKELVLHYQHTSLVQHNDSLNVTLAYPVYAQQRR
The entries below are paired with their reported inhibition at 1.1 µM.
Give just the number in %; leave the unit off.

See these solved cases before continuing.
compound: CC(c1ccc(Cl)c(Cl)c1)c1nc(N2CCOCC2)sc1C(=O)O (stereo not drawn)
inhibition at 1.1 µM [%]: 77
--
compound: CC(=O)Nc1cc(-c2cc(C(c3ccc(Cl)cc3)N3CCN(C(C)=O)CC3)c(-c3nnc[nH]3)s2)ccn1 (stereo not drawn)
inhibition at 1.1 µM [%]: 91
--
compound: COC(c1ccc2ccccc2c1)c1c(C(=O)O)sc(N2CCOCC2)c1C#N (stereo not drawn)
inhibition at 1.1 µM [%]: 112
--
compound: OC(c1ccc2c(c1)OCO2)c1cc(-c2ccncc2)sc1-c1nnc[nH]1 (stereo not drawn)
inhibition at 1.1 µM [%]: 87
--
compound: COC(=O)Nc1cc(-c2sc(-c3nnc[nH]3)c(Cc3ccc4ccccc4c3)c2C#N)ccn1
inhibition at 1.1 µM [%]: 60
--
compound: COc1ccc2cc(Cc3c(C(=O)O)sc(N4CCOCC4)c3C#N)ccc2c1
inhibition at 1.1 µM [%]: 107
--
compound: Cc1ccc(C(O)c2cc(-c3ccncc3)sc2-c2nnc[nH]2)s1 (stereo not drawn)
inhibition at 1.1 µM [%]: 82
--
compound: CC(=O)Nc1cc(-c2cc(C(OCC3CCCC3)c3ccc(Cl)cc3)c(-c3nnc[nH]3)s2)ccn1 (stereo not drawn)
inhibition at 1.1 µM [%]: 67
--
compound: Clc1ccc(Cc2nc(-c3ccncc3)sc2-c2nnn[nH]2)cc1
inhibition at 1.1 µM [%]: 60
--
compound: OC(c1ccc2c(c1)OC(F)(F)O2)c1cc(-c2ccncc2)sc1-c1nnc[nH]1 (stereo not drawn)
inhibition at 1.1 µM [%]: 72

// lookup inhibition at 1.1 µM for Cc1ccc(C(O)c2cc(-c3ccncc3)sc2-c2nnc[nH]2)cc1C (stereo not drawn)
70

Where these numbers come from: patent US8796268B2
